Hey, just so you know, these numbers are from the nanobody polyreactivity screen of Harvey et al. (2022).

experiment: yeast display, Sf9 membrane polyspecificity reagent, FACS + sequencing; frameworks hold sequencing errors
PROPERTY NAME: polyreactivity (PSR sort gate)

Answered cases to consult:
- POLYMER SEQUENCE: "QVQLVESGGGLVQAGGSLRLSCAASGRIFVGYAMGWYRQAPGKERELVAAITGSGGGTYYADSVKGRFTISRDNAKNTVYLQMNSLKPEDTAVYYCNARYRSYYVTQRLDYWGQGTQVTVSS"
  polyreactivity (PSR sort gate): "high polyreactivity"
- POLYMER SEQUENCE: "QVQLVESGGGLVQAGGSLRLSCAASGIIFPYYAMGWYRPAPGKERELVAAITSSGGSTYYADSVKGRFTISRDNAKNTVYLQMNSLKPEDSAVYYCAAQTWGHGGDSWGQGTQVTVSS"
  polyreactivity (PSR sort gate): "high polyreactivity"
- POLYMER SEQUENCE: "QVQLVESGGGLVQAGGSLRLSCAASGRIFPSYAMGWYRQAPGKERELVAAISDSDGSTYYADSVKGRFTISRDNAKNTVYLQMNSLKPEDTAVYYCAAEGSYPAYDYWGQGTQVTVSS"
  polyreactivity (PSR sort gate): "low polyreactivity"
- POLYMER SEQUENCE: "QVQLVESGGGLVQAGGSLRLSCAASGLIFRSYAMGWYRQAPGKERELVARISIRGGSTYYADSVKGRFTISRDNAKYTVYLQMNSLKPEDTAVYYCGAVGYFGGFRYDYWGQGTQVTVSS"
  polyreactivity (PSR sort gate): "high polyreactivity"

INPUT: # query: polyreactivity (PSR sort gate) of entry QVQLVESGGGLVQAGGSLRLSCAASGSTFDVNTMGWYRQAPGKERELVAAISSSGGDTYYADSVKGRFTISRDNAKNTVYLQMNSLKPDDTAVYYCAARLGFYTYGYTSWYTVYYWGQGTQVTVSS
OUTPUT: low polyreactivity

INPUT: # query: polyreactivity (PSR sort gate) of entry QVQLVESGGGLVQAGGSLRLSCAASGSIFQVYAMGWYRQAPGKEREFVAAISYSGGGTYYADSVKGRFTISRDNAKNTVFLQMNSLKPEDTAVYYCAADVSGWEYDFWGLGTQVTVSS
OUTPUT: low polyreactivity

INPUT: # query: polyreactivity (PSR sort gate) of entry QVQLVESGGGLVQAGGSLRLSCAASGFTFWDYAMGWYRQAPGKERELVATISSDGSTNYADSVKGRFTISRDNAKNTVYLQMNSLKPEDTAVYYCAADGYLYFWYPYDYWGQGTQVTVSS
OUTPUT: low polyreactivity

INPUT: # query: polyreactivity (PSR sort gate) of entry QVQLVESGGGLVQAGGSLRLSCAASGRTFFYNAMGWYRQAPGKERELVAAISSGGGSTYYADSVKGRFTISRDNAKNTVYLQMNSLKPEDTAVYYCAAASYRQPGYGYWGQGTQVTVSS
OUTPUT: high polyreactivity

INPUT: # query: polyreactivity (PSR sort gate) of entry QVQLVESGGGLVQAGGSLRLSCAASGFIFHPYAMGWYRQAPGKERELVAAISWSGDGTYYADSVKGRFTISRDNAKNTVYLQMNSLKPEDTAVYYCNAGFYRSYYKSPMGYWGQGTQVTVSS
OUTPUT: low polyreactivity

INPUT: # query: polyreactivity (PSR sort gate) of entry QLQLVESGGGLVQAGGSLRLSCAASGSIFRWYTMGWYRQAPGKERELVAAISSGGSTNYADSVKGRFTISRDNAKNTVYLQMNSLKPEDTAVYYCAARAIYKSKYDYWGQGTQVTVSS
OUTPUT: high polyreactivity

INPUT: # query: polyreactivity (PSR sort gate) of entry QVHLVESGGGLVQAGGSLRLSCTASGRTFKYNSMGSSRQEPGKERELVAAISSRGGSTYYADSVKGRFTISRDNAKNTVYLQMNSLKPEDTAVYYCAAQFTTRYDWGQGTQVTVSS
OUTPUT: high polyreactivity

INPUT: # query: polyreactivity (PSR sort gate) of entry QVQLVESGGGLVQAGGSLRLSCAASGTFRRYTMGWYRQAPGKERELVAAITSSGGTYYADSVKGRFTISRDNAKNTVYLQMNSLKPEDTAVYYCAARDYWSRYFRPGIVGWHDYWGQGTQVTVSS
OUTPUT: high polyreactivity

INPUT: # query: polyreactivity (PSR sort gate) of entry QVQLVESGGGLVQAGGSLRLSCAASGSIFSYYAMGWYRQAPGKERELVADITVRGGSTYYADSVKGRFTISRDNAKNTVYLQMNSLIPEDTAVYYCAADWLDESFSYGPYYYWGQGTQVTVSS
OUTPUT: low polyreactivity

INPUT: # query: polyreactivity (PSR sort gate) of entry QVQLVESGGGLVQAGGSLRLSCAASGLIFATNAMGWYRQAPGKERELVATITRSAGRTYYADSVKGRFTISRDNAKNPVYLQMNSLKPEDTAVYYCAASYWDTEPGYREYDYWGQGTQVTVSS
OUTPUT: low polyreactivity

INPUT: # query: polyreactivity (PSR sort gate) of entry QVQLVESGGGLVQAGGSLRLSCAASGSTFSDYTMGWYRQAPGKERELVAAITTIGGSTYYADSVKGRFTISRDNAKNTVYLQMNSLKPEDTAVYYCAASYYYPFEYYYWGQGTQVTVSS
OUTPUT: low polyreactivity

INPUT: # query: polyreactivity (PSR sort gate) of entry QVQLVESGGGLVQAGGSLRLSCAASGSTFVGYAMGWYRPAPGKDRELFAAITRGGGSTYYADSVKWRFTISRDNAKNTVYLQINSLKPEDTAVYYCAAYQHPGLRTSYEYWGQGTQVTVSS
OUTPUT: low polyreactivity

INPUT: # query: polyreactivity (PSR sort gate) of entry QVQLVESGGGLVQAGGSLRLSCAASGFIFAYNAMGWYRQAPGKERELVASIRTRGGSTYYADSVKGRFTISRDNAKNTVYLQMNSLKPEDTAVYYCAARPFPRRYDYWGQGTQVTVSS
OUTPUT: low polyreactivity

INPUT: # query: polyreactivity (PSR sort gate) of entry QDQHVESGGGLVQAGGSLRLICAASGLIFGYYAIGWYRLAPGKERELVAAITSDSSTNYADSVKGRFTISRDNAKNTVYLHMNSLKPVDTAVYYCAADIMTRRGYYYWGHGTQVTVSS
OUTPUT: high polyreactivity

INPUT: # query: polyreactivity (PSR sort gate) of entry QVQLVESGGGLVQAGGSLRLSCAASGRTFQYNTMGWYRQAPGKERELVAAISRSGGTTYYADSVKGRFTISRDNAKNTVYLQMNSLKPEDTAVYYCAAANSYTFRYGSWGQGTEVTVSS
OUTPUT: high polyreactivity

INPUT: # query: polyreactivity (PSR sort gate) of entry QVQLVESGGGLVQAGGSLRLSCAASGSTFSYSTMVWYRQPPGKERELVATISRRGASTYYADSVKGRFTISRDNAKNTVYLQMNSLKPEDTAVYYCAKSYYYGRSATRPEYDYWGQGTQVTVSS
OUTPUT: high polyreactivity

INPUT: # query: polyreactivity (PSR sort gate) of entry QVQLVESGGGLVQAGGSLRLSCAASVRIFWPYAMGWYRQAPGKERELVAAITLSGGSTYYADSVKGRFTISRDNAKNTVYLQKNCMKPVETAVYYSAGDHKRTWGGDQGKSHGYWGQGTKVTVSS
OUTPUT: low polyreactivity
